- Tested on: CEM cells HIV-1 protection, formazan growth assay
- procedure-text: NCI AIDS Antiviral Assay;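 active = compounds giving half or more protection of infected cells from virus-caused growth loss, again on retest; inactive = the rest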
- Procedure: The ability of compounds to protect human CEM cells from HIV-1 infection is measured as a screen for new compounds capable of inhibiting the HIV virus. Five concentrations of drug were tested on uninfected and infected cells and cell growth was measured using a soluble formazan assay. […] Compounds that provided at least 50% protection were retested. Compounds that provided at least 50% protection on retest were listed as moderately active. […]
Log the outcome using a class from active, inactive

INSERT INTO measurements (compound, system, class_name) VALUES
  ('CCN(CC)Cc1ccccc1CC(=O)N1c2ccccc2C(=O)Nc2cccnc21', 'CEM cells HIV-1 protection, formazan growth assay', 'inactive'),
  ('CC(C)=CC(=O)N1CCN(C(=O)C=C(C)C)CC1', 'CEM cells HIV-1 protection, formazan growth assay', 'inactive'),
  ('N#C/C(=C\c1ccccc1)c1cccc(Br)c1', 'CEM cells HIV-1 protection, formazan growth assay', 'inactive'),
  ('Nc1ccn(C2CSC(CO)O2)c(=O)n1 (stereo not given)', 'CEM cells HIV-1 protection, formazan growth assay', 'active');

Note: attention shifts to another entry.
query: Dear all, I need the recorded test outcome for COC1/C=C/OC2(C)Oc3c(C)c(O)c4c(O)c(c(C5SCCS5)c(O)c4c3C2=O)NC(=O)/C(C)=C\C=C\C(C)C(O)C(C)C(O)C(C)C(O)C1C (stereo not given) , thank you.
result: inactive

====

- System: CEM cells HIV-1 protection, formazan growth assay
- procedure-text: NCI AIDS Antiviral Assay;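 active means compounds giving half or more protection of infected cells from virus-caused growth loss, again on retest; inactive means the rest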
Log the outcome using a class from 1.0 (active), 0.0 (inactive)

INSERT INTO assay_data (molecule, class_name) VALUES
  ('O=C(OC[C@H]1C[C@H]2C(=O)CCC[C@H]2O1)c1ccccc1', 0.0);

query: Dear all, I need the recorded test outcome for COc1ccc(/C=C/C(=O)C(C)C)cc1 , thank you.
result: 0.0

query: Dear all, I need the recorded test outcome for Cn1c(-c2ccc(/C=N/NC(N)=NCCCCCCN=C(N)N/N=C/c3ccc(-c4c[n+]5ccccc5n4C)cc3)cc2)c[n+]2ccccc12 , thank you.
result: 1.0

query: Dear all, I need the recorded test outcome for CCOC(=O)C(NC(=O)c1ccccc1)(Nc1ccc(S(=O)(=O)Nc2cc(C)nc(C)n2)cc1)C(F)(F)F (centres undefined) , thank you.
result: 0.0

query: Dear all, I need the recorded test outcome for CCCCCCOC(=O)CC1CC(C(C)=O)C1(C)C (centres undefined) , thank you.
result: 0.0

query: Dear all, I need the recorded test outcome for O=C(CC1(O)C(=O)Nc2c(Cl)cc(Cl)cc21)c1ccc(Br)cc1 (centres undefined) , thank you.
result: 0.0

query: Dear all, I need the recorded test outcome for O=C(/C=C\c1ccccc1)Oc1ccc(/C=C2\CCCCC2=O)cc1 , thank you.
result: 0.0

query: Dear all, I need the recorded test outcome for [Cl][Ni].[NH-]C(Cc1c[nH]cn1)C(=O)O (centres undefined) , thank you.
result: 0.0

query: Dear all, I need the recorded test outcome for COC(=O)c1cc(C(=CCC(=O)N[C@H]2CC[C@@]3(C)[C@@H](CC[C@@H]4[C@@H]3CC[C@]3(C)[C@@H]([C@H](C)CCCC(C)C)CC[C@@H]43)C2)c2cc(Cl)c(OC)c(C(=O)OC)c2)cc(Cl)c1OC , thank you.
result: 0.0
